Answer each item with its documented residual activity.
# experimental-target: Tyrosine-protein kinase ITK/TSK (Homo sapiens) (UniProt Q08881)
# Sequence (Q08881 whole entry): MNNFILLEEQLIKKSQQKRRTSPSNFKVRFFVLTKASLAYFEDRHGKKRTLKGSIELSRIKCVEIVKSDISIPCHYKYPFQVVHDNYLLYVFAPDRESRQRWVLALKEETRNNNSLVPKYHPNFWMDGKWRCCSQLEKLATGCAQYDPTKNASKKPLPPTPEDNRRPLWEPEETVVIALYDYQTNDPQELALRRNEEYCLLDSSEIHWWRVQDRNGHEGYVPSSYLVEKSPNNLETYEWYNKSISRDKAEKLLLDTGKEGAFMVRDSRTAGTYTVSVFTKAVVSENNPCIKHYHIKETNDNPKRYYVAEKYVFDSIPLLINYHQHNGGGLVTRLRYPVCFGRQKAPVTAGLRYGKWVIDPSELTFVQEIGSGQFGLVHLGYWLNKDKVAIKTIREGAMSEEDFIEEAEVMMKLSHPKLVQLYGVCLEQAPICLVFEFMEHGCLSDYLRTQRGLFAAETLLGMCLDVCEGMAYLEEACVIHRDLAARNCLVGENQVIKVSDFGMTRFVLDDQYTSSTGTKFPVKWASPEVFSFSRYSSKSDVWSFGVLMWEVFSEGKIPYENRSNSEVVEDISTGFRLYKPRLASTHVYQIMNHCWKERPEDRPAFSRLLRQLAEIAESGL
# measurement-context: at 10 µM
All answers are understood in %, so give the number only.

Item CCOC(=O)c1c(C)[nH]c(/C=C2\C(=O)Nc3ccccc32)c1C has what recorded residual activity? 99

Item O=S(=O)(NCCNC/C=C/c1ccc(Br)cc1)c1cccc2cnccc12 has what recorded residual activity? 100

Item COc1cc2ncnc(Nc3cccc(Cl)c3)c2cc1OC has what recorded residual activity? 105

Item Nc1ncnc2c1c(-c1ccc(Oc3ccccc3)cc1)cn2C1CCCC1 has what recorded residual activity? 4

Item NC(=O)Nc1sc(-c2ccc(F)cc2)cc1C(N)=O has what recorded residual activity? 1

Item CCCC(=O)Oc1ccc2[nH]c(C(=O)c3cc4ccccc4[nH]3)cc2c1 has what recorded residual activity? 101

Item CCCCc1c(-c2ccc(O)cc2)[nH]c2nccnc12 has what recorded residual activity? 38

Item Cn1sc(=O)n(Cc2ccccc2)c1=O has what recorded residual activity? 83

Item Cn1c2ccccc2c2c3c(c4c5ccccc5n(CCC#N)c4c21)CNC3=O has what recorded residual activity? 4

Item O=C(CCCc1ccc(-c2ccccc2F)cc1)Nc1ccc(O)cc1 has what recorded residual activity? 98

Item O=C(c1cc2cc(O)ccc2[nH]1)c1cc2cc(O)ccc2[nH]1 has what recorded residual activity? 16
